- System tested: NMUR-1 (Caenorhabditis elegans, UniProt Q18701)
- Sequence (Q18701 1-400): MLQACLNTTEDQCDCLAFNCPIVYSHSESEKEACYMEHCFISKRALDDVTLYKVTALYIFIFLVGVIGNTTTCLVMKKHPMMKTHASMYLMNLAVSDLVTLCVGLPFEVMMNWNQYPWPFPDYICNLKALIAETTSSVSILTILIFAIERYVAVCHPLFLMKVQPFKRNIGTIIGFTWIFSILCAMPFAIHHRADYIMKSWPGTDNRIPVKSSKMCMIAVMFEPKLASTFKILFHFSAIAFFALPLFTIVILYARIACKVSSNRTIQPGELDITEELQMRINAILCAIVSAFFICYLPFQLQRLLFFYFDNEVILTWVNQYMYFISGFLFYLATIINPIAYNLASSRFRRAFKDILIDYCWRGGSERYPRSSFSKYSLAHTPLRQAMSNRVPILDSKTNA
- Test method notes: Luminescence-based (aequorin) calcium mobilization assay for GPCR activation, NMUR-1 expressed in CHO cells
- Assay type: cell-based
- Condition details: calcium response, aequorin luminescence 496 nm, 30 s; CHO K1 cells stably overexpressing apo-aequorin and human Gα16, transiently transfected nmur-1/pcDNA3.1; 0.1 nM to 100 µM; HPLC-purified peptides; CAPA-1-2 n = 6 experimental repeats; read-out: EC50 (half maximal effective concentration) to activate NMUR-1
No end group written: not given here.
Measured attribute: EC50 (µM)
Give bare numbers, in µM.

Reported EC50, substance LYMARV-NH2 [CAPA-1-2] : ____
8
